# Test system: SK-OV-3
# ASSAY_NOTES: NCI tumour cell line growth inhibition, 48 h
Calls of active or inactive are those of the source. Rule as the data show it: active = GI50 up to about 1.1 µM and inactive = higher.
Classes used: active, inactive

# MOLECULE, TESTED_TARGET, GROUP
rows = [
    ("COc1c(C(C)(C)C)cc(CC2C(=O)C=CC2=O)cc1C(C)(C)C", "SK-OV-3", "inactive"),
    ("CSC1(C(=O)O)C2CCC3C2CCC31 (stereo unspecified)", "SK-OV-3", "inactive"),
    ("COC(=O)c1oc([N+](=O)[O-])c(Cl)c1Cl", "SK-OV-3", "inactive"),
    ("O=[N+]([O-])/C=C/c1cn(CCCCCCCCCCCCn2cc(/C=C/[N+](=O)[O-])c3ccccc32)c2ccccc12", "SK-OV-3", "inactive"),
    ("CC1CN(CCO)CC(C)O1 (stereo unspecified)", "SK-OV-3", "inactive"),
    ("CCOC(=O)Oc1ccc2c(c1)c(=O)c1c(NCCCN(CC)CC)ccc3nnn2c31", "SK-OV-3", "inactive"),
    ("O=C(/C=C/c1ccc(O)c(O)c1)NC(CO)C(=O)O (stereo unspecified)", "SK-OV-3", "inactive"),
    ("N[C@H](C(=O)O)[C@@H](Cl)CC(=O)O", "SK-OV-3", "inactive"),
    ("O[C@H]1[C@H]2c3cc4c(cc3CN3CCC(=C[C@@H]1O)[C@H]23)OCO4", "SK-OV-3", "inactive"),
    ("CC(=O)OCc1cc(OC(C)=O)cnc1COC(C)=O", "SK-OV-3", "inactive"),
    ("O=C(Cn1ccc(=O)[nH]c1=O)Nc1ccc(C(=O)O)c(O)c1", "SK-OV-3", "active"),
]

* * *

# Test system: Malme-3M
# ASSAY_NOTES: NCI tumour cell line growth inhibition, 48 h
The source made the active and inactive calls. No stated cut-off is given here; in the data, active = GI50 up to about 1.1 µM and inactive = higher.
Reported GI50 values for a set of molecules

# MOLECULE, GI50
records = [
    ("CC1(C)C(=O)/C=C\\C(=O)C(C)(C)C2=CC=C(O2)C(C)(C)C(=O)/C=C\\C(=O)C(C)(C)C2=CC=C1O2", "> 100 µM (inactive)"),
    ("O[C@H]1[C@H]2c3cc4c(cc3CN3CCC(=C[C@@H]1O)[C@H]23)OCO4", "1.92 µM (inactive)"),
    ("Fc1ccc(-c2sc(-c3cccs3)cc2Cc2cccs2)cc1", "> 100 µM (inactive)"),
    ("CC12CCC3c4cc(Br)c(O)c(Br)c4CCC3C1CCC2O (stereo not given)", "14.3 µM (inactive)"),
    ("CO/N=C1/c2sccc2[C@H](NC(=O)C(Cc2ccccc2)NC(=O)OC(C)(C)C)[C@@H]1O (stereo not given in full)", "> 100 µM (inactive)"),
    ("Cc1c2oc(=O)c(C#N)cc2c2ccccn12", "97.3 µM (inactive)"),
    ("Clc1ccc2nc(-c3ccccc3)nc(Cl)c2c1", "24.2 µM (inactive)"),
    ("COc1ccc(-c2nc(SCC(=O)NNC(=S)Nc3ccccc3)[nH]c2-c2ccc(OC)cc2)cc1", "52.2 µM (inactive)"),
    ("CSc1c(C(=O)Nc2ccc(Cl)cc2)c(N)nn1-c1ccccc1", "> 100 µM (inactive)"),
    ("O=C1C2c3[nH]c4ccccc4c3C3CCCCCC3C2C(=O)N1c1ccccc1 (stereo not given)", "9.31 µM (inactive)"),
    ("COCc1c(CO)cnc(C)c1OC1OC(CO)C(O)C(O)C1O (stereo not given)", "> 100 µM (inactive)"),
    ("COC(=O)C1(C(=O)OC)CC(=O)c2cc3c(cc2-c2c(cc(OC)c(OC)c2OC)C1)OCO3", "> 211 µM (inactive)"),
    ("COC(=O)C1=C(C(=O)OC)C(C(=O)OC)C(C(=O)OC)=C1C(=O)OC", "> 100 µM (inactive)"),
    ("O=C(Oc1ccc2c(-c3ccccc3)c(C(=O)Nc3ccc(Cl)cc3)c(=O)oc2c1)c1ccccc1", "> 100 µM (inactive)"),
    ("COc1ccc2cccc(C(=N)c3ccc(C)c4c3CCC4)c2c1", "3.62 µM (inactive)"),
    ("COc1c2c3c4c(c(OC)c(=O)c5c(O)cc(OC)c(c6c(OC)cc(O)c(c1=O)c63)c54)C(C(C)O)C2C(C)O (stereo not given)", "1.17 µM (inactive)"),
    ("O=C1c2ccccc2C(=O)c2c(O)c(NCCNCCO)cc(O)c21", "12.1 µM (inactive)"),
    ("O=C(Nc1ccc(F)cc1)C(=O)C(C1OC(=O)c2ccccc21)[N+](=O)[O-] (stereo not given)", "> 100 µM (inactive)"),
    ("COc1cc(C2c3cc4c(cc3OC(N3CCOCC3)C2C)OCO4)ccc1O (stereo not given)", "10.9 µM (inactive)"),
    ("C1=CC=C2NCCCCCCC/N=C3/C=CC=CC=C3NCCCCCCC/N=C\\2C=C1", "> 100 µM (inactive)"),
    ("CCOC(=O)CCCn1cc(C(=O)OC)nn1", "> 100 µM (inactive)"),
    ("CCCCN(CCCC)C(=O)C(=O)C(C(=O)C(=O)OC)c1nc2ccccc2o1 (stereo not given)", "> 100 µM (inactive)"),
    ("COc1ccc2c(c1)[n+]([O-])c1cc(C#N)ccc1[n+]2[O-]", "2.58 µM (inactive)"),
    ("CC(C)(Cl)C(Br)CCC(Br)(CCl)C(Cl)CBr (stereo not given)", "> 10 µM (inactive)"),
    ("C(/c1ccco1)=c1/nc(-c2ccccc2)n2c1nc1ccccc12", "16.4 µM (inactive)"),
]

* * *

# GI50 annotations
# Test system: HCT-116
# ASSAY_NOTES: NCI tumour cell line growth inhibition, 48 h
Active and inactive are the calls of the source. Rule as the data show it: active = GI50 up to about 1.1 µM and inactive = higher.

# COMPOUND, GI50
records = [
    ("Cc1nc2c(nc1C)C(=O)c1cc(O)ccc1C2=O", "77.6 µM (inactive)"),
    ("CC1(C)OCC(C2OC(C)(C)OC2[C@H]2O[C@@]3(O)[C@H]4[C@H](C=CC[C@@H]42)[C@@H](OCc2ccccc2)[C@H](OCc2ccccc2)[C@H]3OCc2ccccc2)O1 (stereo partly drawn)", "16.1 µM (inactive)"),
    ("N#Cc1c(N)nc(-c2ccc(Cl)cc2)c2c1-c1ccccc1S(=O)(=O)CC2", "> 100 µM (inactive)"),
    ("CC1C(OC2O[C@@H]3O[C@@]4(C)CC[C@H]5[C@H](C)CC[C@@H](C2C)[C@@]35O4)O[C@@H]2O[C@@]3(C)CC[C@H]4[C@H](C)CC[C@@H]1[C@@]24O3 (stereo partly drawn)", "> 50 µM (inactive)"),
    ("N=c1oc2ccccc2cc1-c1nc2ccccc2[nH]1", "49.1 µM (inactive)"),
    ("Cc1c(F)c(N)c2c(=O)cc(-c3ccc(NC(=O)CN(C)C)c(F)c3)oc2c1F", "> 100 µM (inactive)"),
    ("COC(=O)C(=O)C(C(=O)OC)C(=O)C(=O)Nc1c(Cl)cc([N+](=O)[O-])cc1Cl (stereo not drawn)", "> 100 µM (inactive)"),
    ("O=C(N/C(=C\\c1ccc(/C=C(\\NC(=O)c2ccccc2)c2nc3ccccc3s2)cc1)c1nc2ccccc2s1)c1ccccc1", "8.2 µM (inactive)"),
]

* * *

# Tested on: M14
# ASSAY_NOTES: NCI tumour cell line growth inhibition, 48 h
Calls of active or inactive are those of the source. No stated cut-off is given here; in the data, active = GI50 up to about 1.1 µM and inactive = higher.
Outcomes: label 1 for active, label 0 for inactive

# COMPOUND, GROUP
measured = [
    ("CC(C)(C)CNC(=O)NCn1cc(-c2ccccc2)nn1", "label 0"),
    ("CN(C)c1nc(N(C)C)n2nc(-c3ccccc3[N+](=O)[O-])nc2n1", "label 0"),
    ("CCC1(CCSC(=N)N)C(=O)NC(=O)NC1=O", "label 0"),
    ("CC(=O)c1cccc(NC(=O)C(=O)C(c2cnc3ccc([N+](=O)[O-])cc3n2)[N+](=O)[O-])c1 (stereo unspecified)", "label 0"),
    ("NC(CSCc1ccccc1)C(=O)O (stereo unspecified)", "label 0"),
    ("COc1cccc2c1CCc1ccccc1CC2=O", "label 0"),
    ("CCCCCCCCCCCCO[PH](=O)OCCCCCCCCCCCC", "label 0"),
    ("O=C(Cn1ccc(=O)[nH]c1=O)Nc1ccc(C(=O)O)c(O)c1", "label 0"),
    ("CSc1c(C(=O)Nc2ccc(Cl)cc2)c(N)nn1-c1ccccc1", "label 0"),
    ("Cc1cccc(C)c1NC(=O)C(=O)C(C#N)c1ccccc1Cl (stereo unspecified)", "label 0"),
    ("C=CC(=O)N1C/C(=C\\c2ccc(Cl)cc2)C(=O)/C(=C/c2ccc(Cl)cc2)C1", "label 1"),
]
